B1: C2orf65 (parent)
chain: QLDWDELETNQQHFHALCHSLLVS

# Variants of: B1
# TEST_PROTOCOL: protein stability index of a GFP-peptide fusion (GPS, HEK-293T) (PSI 1-6); higher = more stable;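 note: lentivirally expressed fusions sorted by FACS into six bins by GFP to DsRed ratio, PSI derived from sequencing read proportions per bin multiplied by bin number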
# RECORDED_CONDITIONS: c terminus: a fixed tail appended
RECORDED_METRIC: protein stability index

| RESIDUE_SEQUENCE | QUANTITATIVE_READOUT |
| --- | --- |
| QLDWDELETNQQHFEALCHSLLVS | 2.78 |
| QLDWDELETNQQHFHALCHTLLVS | 1.95 |
| QLDWNELETNQQHFHALCHSLLVS | 1.49 |
| QLDWDELETNQQHFAALCHSLLVS | 1.92 |
| QLDWDELETNQQHFHALCHQLLVS | 2.03 |
| QLDWDEDETNQQHFHALCHSLLVS | 3.63 |
| QLMWDELETNQQHFHALCHSLLVS | 1.05 |
| QLDWDELETNDQHFHALCHSLLVS | 2.56 |
| QLDWDELETNQQHFQALCHSLLVS | 1.72 |
| QLDWDELETNQQHFHALHHSLLVS | 2.65 |
| QLDWDELETNQQHFHAVCHSLLVS | 1.74 |
| QLDWDEKETNQQHFHALCHSLLVS | 2.79 |
| QLDWFELETNQQHFHALCHSLLVS | 2.47 |
| QLDWDELETNQQHMHALCHSLLVS | 2.72 |
| QLDWDELETNQMHFHALCHSLLVS | 1.83 |
| QLDWDELETNQQHFKALCHSLLVS | 2.42 |
| QLDWDELITNQQHFHALCHSLLVS | 2.01 |
| QLDWRELETNQQHFHALCHSLLVS | 1.95 |
| QLDWDELETNQQHFHALCHALLVS | 1.79 |
| QLDWDELETNQLHFHALCHSLLVS | 1.67 |
| QLDWDELETNQQHFVALCHSLLVS | 2.39 |
| QLDWDELETNQQDFHALCHSLLVS | 2.37 |
| QLDWDELETNQQEFHALCHSLLVS | 2.89 |
| QLDWDELVTNQQHFHALCHSLLVS | 1.21 |
| QLDWDELETNQQIFHALCHSLLVS | 1.71 |
| QLIWDELETNQQHFHALCHSLLVS | 2.23 |
| QLDWDELETNQQVFHALCHSLLVS | 1.85 |
| QLDWDELETNIQHFHALCHSLLVS | 1.39 |
| QLDWDELETNQQHFHHLCHSLLVS | 2.35 |
| QLDWDELHTNQQHFHALCHSLLVS | 1.95 |
| QLDWSELETNQQHFHALCHSLLVS | 1.83 |
| QHDWDELETNQQHFHALCHSLLVS | 2.51 |
| QLDWDCLETNQQHFHALCHSLLVS | 1.95 |
| QLDWDELETNQQHFHELCHSLLVS | 3.07 |
| QLDWDELETNQQHFYALCHSLLVS | 1.82 |
| QLDWDWLETNQQHFHALCHSLLVS | 2.55 |
| QLSWDELETNQQHFHALCHSLLVS | 1.57 |
| QLDWDEHETNQQHFHALCHSLLVS | 2.18 |

This collection of values is drawn from the supplement of paper PMC10567573.
